test system: KM20L2 colon; test: NCI tumour cell line growth inhibition, 48 h
Task for the reader: assign each of the following molecules its reported TGI.

The measured TGI associated with Cc1c(C(=O)/C=C/c2ccc3c(c2)OCO3)[n+](=O)c2ccccc2n1[O-] reads 48.3 µM

O=C(Nc1c(Cl)cc([N+](=O)[O-])cc1Cl)C(=O)C(C(=O)c1ccncc1)C1OC(=O)c2ccccc21 (stereo not given) has a reported TGI of > 100 µM

Quick note, TGI for CC(=O)O[C@H]1C(=O)[C@@]2(C)C([C@H](OC(=O)c3ccccc3)[C@]3(O)C[C@H](OC(=O)[C@H](O)[C@@H](NC(=O)c4ccc(Cl)cc4)c4ccccc4)C(C)=C1C3(C)C)C1(OC(C)=O)CO[C@@H]1C[C@@H]2O (stereo not given in full) landed at > 100 µM

Memo: Nc1cccc(C(=O)/C=C/c2ccccc2O)c1 , reported TGI: > 100 µM

The value of TGI measured for the molecule CN(C)CC(=O)N1CCc2c([nH]c3ccccc23)C1c1cccnc1 (stereo not given) turned out to be > 100 µM

TGI recorded for this molecule, Cc1ccc(/C=C2\CCCC(C(NO)c3ccc(C)cc3)C2=NO)cc1 (stereo not given) , is 42.5 µM

Lab note: measured TGI of O=c1c2ccccc2n2nnc3ccc(NCCNCCO)c1c32 was 8.29 µM

Per the records, this molecule ( CC(C)C(Nc1c2ccccc2[n+](C)c2ccccc12)C(=O)O (stereo not given) ) has TGI equal to > 100 µM

Record summary for Cc1cc2nc3c(C(OC4OC(CO)C(O)C(O)C4O)C(O)CO)nn(-c4ccc(F)cc4)c3nc2cc1C (stereo not given) : reported TGI = > 100 µM

In plain terms, O=C(NCCOC(=O)CCCCCCCCC(=O)OCCNC(=O)NC(=O)c1cn(Cc2ccccc2)c(=O)[nH]c1=O)NC(=O)c1cn(Cc2ccccc2)c(=O)[nH]c1=O has a documented TGI of > 100 µM

Values compiled from PubChem BioAssay (NCI).
